# Lookup of reported exon inclusion enrichment index keyed by entry
B1: mRNA-splicing (parent)
chain: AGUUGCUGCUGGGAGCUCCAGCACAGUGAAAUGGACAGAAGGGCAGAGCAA

variants of: B1; assay: exon inclusion enrichment index; higher = more inclusion; WT1 exon 5 minigene, HEK293
// keep it numeric: no unit symbol after the value

Worked set:
>  <Variant Code>
G5A C6G U7G G8C C9G

>  <exon inclusion enrichment index>
0.0513

$$$$
>  <Variant Code>
G5A C6U U7A G8U C9A G34C

>  <exon inclusion enrichment index>
0.0129

$$$$
>  <Variant Code>
G5C C6U G8C C9U U10C G15A

>  <exon inclusion enrichment index>
0.641

$$$$
>  <Variant Code>
G5A U7C G8A U10C A30C

>  <exon inclusion enrichment index>
2.51

$$$$
>  <Variant Code>
G5A C6G U7G C9A G13A A14G

>  <exon inclusion enrichment index>
0.00529

$$$$
>  <Variant Code>
C6A U7A C9A U10A G13A A14U

>  <exon inclusion enrichment index>
1.82

$$$$
>  <Variant Code>
G5C C6G G8A U10C

>  <exon inclusion enrichment index>
2.37

$$$$
>  <Variant Code>
G5C C6U G8C C9U U10C G33C

>  <exon inclusion enrichment index>
2.15

$$$$

Data request: Identify measured exon inclusion enrichment index associated with G5A C6U U7A G8U C9A C19G
Data returned: 0.0674

Data request: Identify measured exon inclusion enrichment index associated with G5U G8U C9U G38C A39C
Data returned: 0.152
